# Tested on: Pseudomonas aeruginosa
# PROTOCOL_SUMMARY: Antibacterial activity against Pseudomonas aeruginosa assessed as growth inhibition at 37 degC after overnight incubation by agar well diffusion method
# Type: functional
Collected MIC values appear next to each entry.
MEASUREMENT_KIND: MIC (µg/mL)

compound=O=c1oc2ccccc2cc1-c1csc(N2N=C(c3ccc(F)cc3)C[C@@]2(O)C(F)(F)F)n1 system_tested="Pseudomonas aeruginosa" quantitative_readout=32
compound=O=c1oc2ccccc2cc1-c1csc(N2N=C(c3ccc(Cl)cc3)C[C@@]2(O)C(F)(F)F)n1 system_tested="Pseudomonas aeruginosa" quantitative_readout=32
compound=O=c1oc2ccc(Br)cc2cc1-c1csc(N2N=C(C(F)(F)F)C[C@@]2(O)C(F)(F)F)n1 system_tested="Pseudomonas aeruginosa" quantitative_readout=128
compound=O=c1oc2ccc(Br)cc2cc1-c1csc(N2N=C(c3ccc(Cl)cc3)C[C@@]2(O)C(F)(F)F)n1 system_tested="Pseudomonas aeruginosa" quantitative_readout=128
compound="C=CC1=C(C(=O)O)N2C(=O)[C@@H](NC(=O)/C(=N\\OCC(=O)O)c3csc(N)n3)[C@H]2SC1 [CEFIXIME]" system_tested="Pseudomonas aeruginosa" quantitative_readout=2

====

# Test system: Pseudomonas aeruginosa
# PROTOCOL_SUMMARY: Antibacterial activity against Pseudomonas aeruginosa assessed as diameter of growth inhibition zone at 2 mg/ml at 37 degC after 24 hrs by agar well diffusion method
# Type: functional
# STATED_CONDITIONS: read-out: DIZ
MEASUREMENT_KIND: zone of inhibition at 2000 µg/mL

compound=O=c1oc2ccc(Br)cc2cc1-c1csc(N2N=C(c3ccc(Cl)cc3)C[C@@]2(O)C(F)(F)F)n1 measurement_kind="zone of inhibition at 2000 µg/mL" result="8.1 mm"
compound=O=c1oc2ccccc2cc1-c1csc(N2N=C(c3ccc(Cl)cc3)C[C@@]2(O)C(F)(F)F)n1 measurement_kind="zone of inhibition at 2000 µg/mL" result="8.1 mm"
compound=O=c1oc2ccc(Br)cc2cc1-c1csc(N2N=C(C(F)(F)F)C[C@@]2(O)C(F)(F)F)n1 measurement_kind="zone of inhibition at 2000 µg/mL" result="9.13 mm"
compound=O=c1oc2ccccc2cc1-c1csc(N2N=C(c3ccc(F)cc3)C[C@@]2(O)C(F)(F)F)n1 measurement_kind="zone of inhibition at 2000 µg/mL" result="7.87 mm"
compound="C=CC1=C(C(=O)O)N2C(=O)[C@@H](NC(=O)/C(=N\\OCC(=O)O)c3csc(N)n3)[C@H]2SC1 [CEFIXIME]" measurement_kind="zone of inhibition at 2000 µg/mL" result="10 mm"

====

# Test system: Staphylococcus epidermidis
# PROTOCOL_SUMMARY: Antibacterial activity against Staphylococcus epidermidis assessed as growth inhibition at 37 degC after overnight incubation by agar well diffusion method
# Assay type: functional
MEASUREMENT_KIND: MIC (µg/mL)

compound=O=c1oc2ccc(Br)cc2cc1-c1csc(N2N=C(C(F)(F)F)C[C@@]2(O)C(F)(F)F)n1 system_tested="Staphylococcus epidermidis" measurement_kind=MIC measure_unit=µg/mL quantitative_readout=16
compound=O=c1oc2ccc(Cl)cc2cc1-c1csc(N2N=C(c3ccc(Br)cc3)C[C@@]2(O)C(F)(F)F)n1 system_tested="Staphylococcus epidermidis" measurement_kind=MIC measure_unit=µg/mL quantitative_readout=512
compound=O=c1oc2ccc(Br)cc2cc1-c1csc(N2N=C(c3ccc(F)cc3)C[C@@]2(O)C(F)(F)F)n1 system_tested="Staphylococcus epidermidis" measurement_kind=MIC measure_unit=µg/mL quantitative_readout=64
compound=O=c1oc2ccccc2cc1-c1csc(N2N=C(c3ccc(F)cc3)C[C@@]2(O)C(F)(F)F)n1 system_tested="Staphylococcus epidermidis" measurement_kind=MIC measure_unit=µg/mL quantitative_readout=64
compound=O=c1oc2ccc(Br)cc2cc1-c1csc(N2N=C(c3ccc(Cl)cc3)C[C@@]2(O)C(F)(F)F)n1 system_tested="Staphylococcus epidermidis" measurement_kind=MIC measure_unit=µg/mL quantitative_readout=512
compound=O=c1oc2ccccc2cc1-c1csc(N2N=C(c3ccc(Cl)cc3)C[C@@]2(O)C(F)(F)F)n1 system_tested="Staphylococcus epidermidis" measurement_kind=MIC measure_unit=µg/mL quantitative_readout=64
compound=O=c1oc2ccc(Cl)cc2cc1-c1csc(N2N=C(c3ccc(Cl)cc3)C[C@@]2(O)C(F)(F)F)n1 system_tested="Staphylococcus epidermidis" measurement_kind=MIC measure_unit=µg/mL quantitative_readout=512
compound=O=c1oc2ccc(Cl)cc2cc1-c1csc(N2N=C(c3ccc(F)cc3)C[C@@]2(O)C(F)(F)F)n1 system_tested="Staphylococcus epidermidis" measurement_kind=MIC measure_unit=µg/mL quantitative_readout=64
compound=O=c1oc2ccc(Br)cc2cc1-c1csc(N2N=C(c3ccc(Br)cc3)C[C@@]2(O)C(F)(F)F)n1 system_tested="Staphylococcus epidermidis" measurement_kind=MIC measure_unit=µg/mL quantitative_readout=512
compound="C=CC1=C(C(=O)O)N2C(=O)[C@@H](NC(=O)/C(=N\\OCC(=O)O)c3csc(N)n3)[C@H]2SC1 [CEFIXIME]" system_tested="Staphylococcus epidermidis" measurement_kind=MIC measure_unit=µg/mL quantitative_readout=2
